Numbers sourced from patent US9839642B2.

# tested_target: VIM-1 (Pseudomonas aeruginosa)
# procedure_text: Enzyme activity: determination of IC50, fluorescence assay with CCF2-FA substrate
# Type: biochemical
# condition_description: enzyme 30 pM, CCF2-FA 1.25 μM, 2 hours at 25° C.; read-out: VIM1 IC50
Reported IC50 values for the following compounds.
Entry rule: numbers only, all in nM.

Some entries whose results are on file:
CCC[C@H](C(=O)O)[C@H](Cc1ccc(-c2ccc(N3CCOCC3)nc2)cc1)c1nn[nH]n1
4.3
CCC[C@H](C(=O)O)[C@H](Cc1ccc(-c2cn(C)c(=O)n(C)c2=O)cc1)c1nn[nH]n1
15
CCC[C@H](C(=O)O)[C@H](Cc1ccc(NCC2CCCN2CC)cc1)c1nn[nH]n1 (some centres unmarked)
29

Query :: What value of measured IC50 is listed for CCC[C@H](C(=O)O)[C@H](Cc1ccc(-c2ccc(CN(C)C)cc2)cc1)c1nnn[nH]1 ?
Result :: 6.5

Query :: For CC(C)C[C@H](C(=O)O)[C@H](Cc1ccc(N2CCNCC2)c(F)c1)c1nn[nH]n1 then?
Result :: 1.6

Query :: For O=C(O)[C@@H](CC1CC1)[C@H](Cc1ccccc1)c1nnn[nH]1 then?
Result :: 16

Query :: For CC(C)[C@H](C(=O)O)[C@H](Cc1ccc(OCC(N)CO)nc1)c1nnn[nH]1 (some centres unmarked) then?
Result :: 130

Query :: For C[C@@H](c1ccccc1)[C@H](c1nnn[nH]1)[C@H](CCF)C(=O)O then?
Result :: 190

====

# tested_target: IMP-1 (Serratia marcescens)
# procedure_text: Enzyme activity: determination of IC50, fluorescence assay with CCF2-FA substrate
# Type: biochemical
# condition_description: IMP-1 enzyme 2 pM, CCF2-FA 1.25 μM, 2 hours at 25° C.; read-out: IMP1 IC50
metric_name: IC50

Some entries whose results are on file:
CCC[C@H](C(=O)O)[C@H](Cc1cnc(S(C)(=O)=O)nc1)c1nnn[nH]1 [Example 286]
> 20 µM
CCC[C@H](C(=O)O)[C@H](Cc1ccc(C[C@@H]2CCCOC2)cc1)c1nn[nH]n1 [Example 257]
0.033 µM
CCC[C@H](C(=O)O)[C@H](Cc1ccc(CN2CCN(C)CC2)cc1)c1nn[nH]n1 [Example 251]
1.3 µM
CC(C)C[C@H](C(=O)O)[C@H](Cc1ccc(Oc2cccc3c2CCCN3)nc1)c1nn[nH]n1 [Example 389]
0.058 µM
CCC[C@H](C(=O)O)[C@H](Cc1cnc(N2CCNCC2)nc1)c1nnn[nH]1 [Example 288]
> 20 µM
CCC[C@H](C(=O)O)[C@H](Cc1ccc(C2=CCCNC2)cc1)c1nn[nH]n1 [Example 302]
3.1 µM
CCC[C@H](C(=O)O)[C@H](CCc1ccccc1)c1nnn[nH]1 [Example 266]
1 µM

Query :: What value of measured IC50 is listed for CC(C)C[C@H](C(=O)O)[C@H](Cc1ccc(N2CC3(CCNC3)C2)nc1)c1nnn[nH]1 [Example 336] ?
Result :: 1.2 µM

====

Reported pIC50 values for the following molecules.
# tested_target: UniProtKB C7C422
# procedure_text: Enzyme activity: determination of IC50, fluorescence assay with CCF2-FA substrate
# Type: biochemical
# condition_description: enzyme 1 pM, CCF2-FA 1.25 μM, 2 hours at 25° C.; read-out: NDM1 IC50
Lab note: report pIC50 as minus log10 of the concentration in molar units, number only.

CC(C)CC(C(=O)O)[C@H](Cc1ccc(S(C)(=O)=O)cc1)c1nn[nH]n1 (stereo partly shown) [Example 51]
6.74
CCC[C@H](C(=O)O)[C@H](Cc1ccc(-c2cccc(C3CCCNC3)c2)cc1)c1nn[nH]n1 (stereo partly shown) [Example 195]
7.07
CC(C)[C@H](C(=O)O)[C@H](Cc1ccc(C2=CCNC2)cc1)c1nnn[nH]1 [Example 60]
7.25

Let us examine a further case.
Query :: What value of measured pIC50 is listed for CC(C)C[C@H](C(=O)O)[C@H](Cc1ccc(-c2ccc(S(N)(=O)=O)cc2)cn1)c1nn[nH]n1 [Example 175] ?
Result :: 7.72

====

# tested_target: VIM-1 (Pseudomonas aeruginosa, UniProt A0A0F7KYQ8)
# procedure_text: Enzyme activity: determination of IC50, fluorescence assay with CCF2-FA substrate
# Format: biochemical
# condition_description: enzyme 30 pM, CCF2-FA 1.25 μM, 2 hours at 25° C.; read-out: VIM1 IC50
Reported pIC50 values for the following compounds.
Lab note: report pIC50 as minus log10 of the concentration in molar units, number only.

Some entries whose results are on file:
Cc1cc(C[C@H](c2nnn[nH]2)[C@@H](C(=O)O)C(C)C)ccc1C1CCNC1 (some centres unmarked)
8.36
CCC[C@H](C(=O)O)[C@H](Cc1ccc(-c2cccc(C3CCCNC3)c2)cc1)c1nn[nH]n1 (some centres unmarked)
7.96
CC(C)C[C@H](C(=O)O)[C@H](Cc1ccc(C(N)=O)cc1)c1nnn[nH]1
8.66
CC(C)[C@H](C(=O)O)[C@H](Cc1ccc(-c2ccc(CN)cc2)cc1)c1nnn[nH]1
7.74
CC(C)CCCCC[C@H](C(=O)O)[C@H](Cc1ccc2c(c1)OCO2)c1nnn[nH]1
8.26
CC(C)[C@H](C(=O)O)[C@H](Cc1ccc(C2CCNCC2)nc1)c1nnn[nH]1
7.85
CC(C)(C)[C@H](C(=O)O)[C@H](Cc1ccc(N)nc1)c1nnn[nH]1
6.23

Let us examine a further case.
Query :: What value of measured pIC50 is listed for O=C(O)[C@@H](Cc1ccccc1)[C@H](Cc1ccccc1)c1nnn[nH]1 ?
Result :: 6.19

====

Reported pIC50 values for the following compounds.
# tested_target: IMP-1 (Serratia marcescens, UniProt P52699)
# Sequence (P52699 19-246, looked up, species assumed): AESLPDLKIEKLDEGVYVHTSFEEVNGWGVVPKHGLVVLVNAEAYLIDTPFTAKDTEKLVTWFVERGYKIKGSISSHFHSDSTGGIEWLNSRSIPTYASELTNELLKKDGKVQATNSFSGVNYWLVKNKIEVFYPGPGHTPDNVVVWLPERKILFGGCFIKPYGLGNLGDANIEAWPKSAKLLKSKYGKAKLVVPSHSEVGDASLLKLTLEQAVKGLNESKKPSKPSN
# procedure_text: Enzyme activity: determination of IC50, fluorescence assay with CCF2-FA substrate
# Type: biochemical
# condition_description: enzyme 2 pM, CCF2-FA 1.25 μM, 2 hours at 25° C.; read-out: IMP1 IC50
Lab note: report pIC50 as minus log10 of the concentration in molar units, number only.

Some entries whose results are on file:
CCC[C@H](C(=O)O)[C@H](Cc1ccc(N2CCN(C)CC2)cc1)c1nn[nH]n1
6.35
CC(C)C[C@H](C(=O)O)[C@H](Cc1ccc2ncc(N)cc2c1)c1nnn[nH]1
7.28
CCC[C@H](C(=O)O)[C@H](Cc1ccc(O)nc1)c1nnn[nH]1
4.92
CCC[C@@H](C(=O)O)[C@H](Cc1ccccc1)c1nnn[nH]1
5.82
CCC[C@H](C(=O)O)[C@H](Cc1ccc(-c2cnc(N3CCCCC3)s2)cc1)c1nn[nH]n1
7.59
CCC[C@H](C(=O)O)[C@H](Cc1cnc(N)s1)c1nnn[nH]1
5.82
CCC[C@H](C(=O)O)[C@H](Cc1ccc(-c2ccc(N3CCNCC3)nc2)cc1)c1nn[nH]n1
6.96
O=C(O)[C@@H](C1CCOC1)[C@H](Cc1ccc(C2=CCNC2)cc1)c1nnn[nH]1 (some centres unmarked)
4.92
CC(C)C[C@H](C(=O)O)[C@H](Cc1ccc(Br)c(F)c1)c1nnn[nH]1
7.06
COCCC[C@H](C(=O)O)[C@H](Cc1ccccc1)c1nnn[nH]1
6.07

Query :: What value of measured pIC50 is listed for CCC[C@H](C(=O)O)[C@H](Cc1ccc(-c2ccc3c(c2)CNC3=O)cc1)c1nnn[nH]1 ?
Result :: 7.25

Query :: For CCC[C@H](C(=O)O)[C@H](Cc1ccc(NC2CCCN(CCC)C2)cc1)c1nn[nH]n1 (some centres unmarked) then?
Result :: 5.89

====

# tested_target: NDM-1 (Klebsiella pneumoniae, UniProt C7C422)
# Sequence (C7C422 29-270, looked up, species assumed): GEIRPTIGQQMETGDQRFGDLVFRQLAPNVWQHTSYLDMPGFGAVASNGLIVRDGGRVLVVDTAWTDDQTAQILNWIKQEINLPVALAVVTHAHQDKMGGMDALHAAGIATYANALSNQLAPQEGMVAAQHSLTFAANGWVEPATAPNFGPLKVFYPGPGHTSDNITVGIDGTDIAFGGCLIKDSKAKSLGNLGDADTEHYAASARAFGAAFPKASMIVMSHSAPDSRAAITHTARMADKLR
# procedure_text: Enzyme activity: determination of IC50, fluorescence assay with CCF2-FA substrate
# Type: biochemical
# condition_description: enzyme 1 pM, CCF2-FA 1.25 μM, 2 hours at 25° C.; read-out: NDM1 IC50
Criterion: IC50 strictly less than 200 nM. Met: 1.0. Not met: 0.0.

Field: example entries. Status: answers known.
CCC[C@H](C(=O)O)[C@H](Cc1ccc(NC(C)CN)cc1)c1nn[nH]n1 (some centres unmarked)
0.0
CC(C)[C@H](C(=O)O)[C@H](Cc1ccc(-c2cnc(NCCO)nc2)cc1)c1nnn[nH]1
1.0

Turning to the following compound.
Query :: Does the reported IC50 of the following compound sit strictly below 200 nM? CCC[C@H](C(=O)O)[C@H](Cc1ccc(-c2ccc3[nH]ncc3c2)cn1)c1nnn[nH]1
Result :: 1.0

====

# tested_target: UniProtKB P52699
# procedure_text: Enzyme activity: determination of IC50, fluorescence assay with CCF2-FA substrate
# Format: biochemical
# condition_description: enzyme 2 pM, CCF2-FA 1.25 μM, 2 hours at 25° C.; read-out: IMP1 IC50
Reported IC50 values for the following compounds.
Entry rule: numbers only, all in µM.

CC(C)C[C@H](C(=O)O)[C@H](Cc1ccc(-c2ccc3c(c2)CNC3)cn1)c1nnn[nH]1 [Example 99]
3.9
Nc1ccc(C[C@H](c2nnn[nH]2)[C@@H](C(=O)O)C2CCCC2)cn1 [Example 122]
0.62
CC(C)C[C@H](C(=O)O)[C@H](Cc1ccc(-c2ccc3c(c2)OCC(=O)N3)nc1)c1nn[nH]n1 [Example 180]
0.13

Let us examine a further case.
Query :: What value of measured IC50 is listed for CC[C@H](C)[C@H](C(=O)O)[C@H](Cc1ccc(-c2ccc(-c3nnn[nH]3)cc2)cc1)c1nn[nH]n1 [Example 58] ?
Result :: 0.0014
